- System: BDF1 mice, P388 leukemia ip, median survival T/C
- protocol.description: NCI In Vivo Anticancer Drug Screen. Data for tumor model P388 Leukemia (intraperitoneal) in B6D2F1 (BDF1) mice
- condition.notes: endpoint: median survival time; dose: 200.0 mg/kg/injection; schedule: Q01DX001 (ip); vehicle: Klucel (hydroxypropylcellulose) (HPC); higher = longer survival
Toxic doses and inconclusive results are not listed.
readout.kind: T/C

smiles_representation=Cc1ccc(-c2nc3sccn3c2/C=N/NS(=O)(=O)c2ccc(C)cc2)cc1 readout_kind=T/C value="101 % of control"
smiles_representation=COc1ccc(/C(C#N)=C2C=C(Cl)/C(=N/O)C=C/2Cl)cc1 readout_kind=T/C value="90 % of control"
smiles_representation=O=C(c1ccccc1)C1(Br)CCCCC1 readout_kind=T/C value="104 % of control"
smiles_representation=CCCC(CCC)(C(N)=O)C(=O)O readout_kind=T/C value="122 % of control"

----------
- Tested on: BDF1 mice, P388 leukemia ip, median survival T/C
- protocol.description: NCI In Vivo Anticancer Drug Screen. Data for tumor model P388 Leukemia (intraperitoneal) in B6D2F1 (BDF1) mice
- condition.notes: endpoint: median survival time; dose: 3.12 mg/kg/injection; schedule: Q01DX009 (ip); vehicle: water; higher = longer survival
- Method: The antitumor activity of compounds was measured in mice bearing transplantable tumors. Survival or tumor size were measured and the results are expressed as the measurement made in the treated group (T) divided by the measurement made in the vehicle treated control group (C). The tumor model used in this assay is P388 Leukemia (intraperitoneal) in B6D2F1 (BDF1) mice
Inconclusive results and toxic doses are left out.
readout.kind: T/C

molecule="O=C(O)CCC1(c2ccccc2)CCCC1=O (stereo unspecified)" value="88 % of control"
molecule=Cc1cc(C)[s+]s1 value="97 % of control"
molecule=Clc1ccc(-c2cc[s+]s2)cc1 value="94 % of control"
molecule=NC(N)=Nc1ccc(C(=O)Oc2ccc([N+](=O)[O-])cc2CN2CCCCC2)cc1 value="100 % of control"
molecule=CCOC(=O)Nc1nc(Cl)c(Cl)nc1Cl value="96 % of control"
molecule=c1ccc(CN(CCNc2ccccc2)c2ccccc2)cc1 value="108 % of control"

----------
- Tested on: BDF1 mice, P388 leukemia ip, median survival T/C
- protocol.description: NCI In Vivo Anticancer Drug Screen. Data for tumor model P388 Leukemia (intraperitoneal) in B6D2F1 (BDF1) mice
- condition.notes: endpoint: median survival time; dose: 100.0 mg/kg/injection; schedule: Q01DX001 (ip); vehicle: saline with Tween-80; higher = longer survival
Inconclusive results and toxic doses are left out.
readout.kind: T/C

molecule="C1=CCC(COC(c2ccccc2)(c2ccccc2)c2ccccc2)C(COC(c2ccccc2)(c2ccccc2)c2ccccc2)C1 (centres undefined)" value="93 % of control"
molecule="CC(=O)C1CC2C=CCC(C2)C1 (centres undefined)" value="120 % of control"
molecule="CC(=O)C(C(=O)Nc1ccccc1)c1cc(NS(=O)(=O)c2ccccc2)ccc1O (centres undefined)" value="90 % of control"
molecule=Cn1c(=O)c2nc(-c3ccc(Cl)c(Cl)c3)c(-c3ccc(Cl)c(Cl)c3)nc2n(C)c1=O value="87 % of control"
molecule="CC1CC2OC(=O)C3=C2C(CCC3)C12CC(c1ccoc1)OC2=O (centres undefined)" value="106 % of control"
molecule=Nc1ccc(NS(=O)(=O)Cc2ccccc2)cc1 value="100 % of control"
molecule=Oc1c(-c2ccccc2)cc(-[n+]2c(-c3ccccc3)cc(-c3ccc(-c4ccccc4)cc3)cc2-c2ccccc2)cc1-c1ccccc1 value="102 % of control"
molecule=COc1cc(/C=N/N=C(\N)N[N+](=O)[O-])cc(OC)c1OC value="90 % of control"
molecule=COc1cc(Nc2nc(Cl)ncc2[N+](=O)[O-])cc(OC)c1OC value="104 % of control"
